Just for reference, paper PMC9820345 is where these values come from.

# assay explanation: Proton dissociation constants (pKa) of the ligand by pH-potentiometric, UV-vis and 1H NMR titrations
# Type: physicochemical
# condition details: 0.10 M KCl, UV-vis; I = 0.10 M KCl; cligand 40 μM; 25.0 °C; read-out: pKa (OH)
assay readout: pKa
Just the number, please, no unit after it.

// query Complete the entry with pKa for `O=C(O)[C@@H]1CCCN1Cc1cc([N+](=O)[O-])c2cccnc2c1O`
// result 5.43

---

# assay explanation: Proton dissociation constants (pKa) of the ligand by pH-potentiometric, UV-vis and 1H NMR titrations
# Format: physicochemical
# condition details: 0.20 M KNO3, 1H NMR; I = 0.20 M KNO3; cligand 1000 μM; 25.0 °C; read-out: pKa (OH)
assay readout: pKa

// query Complete the entry with pKa for O=C(O)[C@@H]1CCCN1Cc1cc([N+](=O)[O-])c2cccnc2c1O [HQNO2-L-Pro]
// result 5.56
